Attribution: PubChem BioAssay AID1963441

System: NCI-H1876 complex spheroid growth, % test/control
Assay: Anticancer human tumor NCI-H1876 cell line growth inhibition [Asc];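 further: compound exposure lasted 7 days starting three days after seeding; 100% = DMSO vehicle control wells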
Conditions: second compound 0.03 µM; first compound 0.1 µM; active compounds read low
METRIC: viability, T/C (%)
Please state the figure in %; there is no need to write the unit.

Record excerpt, results attached:
>  <COMPOUND>
O=C(c1cc(Cc2n[nH]c(=O)c3ccccc23)ccc1F)N1CCN(C(=O)C2CC2)CC1 + CCN1C(C(=O)NC23CCC(C(=O)O)(CC2)CC3)C(c2cccc(Cl)c2F)C2(C(=O)Nc3cc(Cl)ccc32)C12CCCCC2

>  <TARGET UNDER TEST>
NCI-H1876 complex spheroid growth, % test/control

>  <viability, T/C, %>
100

$$$$
>  <COMPOUND>
C=CC(=O)N1CCN(c2nc(=O)n(-c3c(C)ccnc3C(C)C)c3nc(-c4c(O)cccc4F)c(F)cc23)C(C)C1 (centres undefined) + CCN1C(C(=O)NC23CCC(C(=O)O)(CC2)CC3)C(c2cccc(Cl)c2F)C2(C(=O)Nc3cc(Cl)ccc32)C12CCCCC2

>  <TARGET UNDER TEST>
NCI-H1876 complex spheroid growth, % test/control

>  <viability, T/C, %>
101

$$$$
>  <COMPOUND>
C=C(F)C(=O)N1CCN(c2nc(OCC3CCCN3C)nc3c2CCN(c2cccc4cccc(Cl)c24)C3)CC1CC#N (centres undefined) + CCN1C(C(=O)NC23CCC(C(=O)O)(CC2)CC3)C(c2cccc(Cl)c2F)C2(C(=O)Nc3cc(Cl)ccc32)C12CCCCC2

>  <TARGET UNDER TEST>
NCI-H1876 complex spheroid growth, % test/control

>  <viability, T/C, %>
108

$$$$

# next compound below
Lab note: measured viability, T/C of C#Cc1c(F)ccc2cc(O)cc(-c3ncc4c(N5CC6CCC(C5)N6)nc(OCC56CCCN5CC(F)C6)nc4c3F)c12 (centres undefined) + CCN1C(C(=O)NC23CCC(C(=O)O)(CC2)CC3)C(c2cccc(Cl)c2F)C2(C(=O)Nc3cc(Cl)ccc32)C12CCCCC2 was 106

###

Recorded viability, T/C, one value per entry.
Test system: NCI-H1876 complex spheroid growth, % test/control
Experiment: Anticancer human tumor NCI-H1876 cell line growth inhibition [Asc];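 further: compound exposure lasted 7 days starting three days after seeding; 100% = DMSO vehicle control wells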
Settings: second compound 10 µM; first compound 10 µM; active compounds read low
Entry rule: numbers only, all in %.

Worked examples, 3 molecules total:
>  <MOLECULE>
C=C(F)C(=O)N1CCN(c2nc(OCC3CCCN3C)nc3c2CCN(c2cccc4cccc(Cl)c24)C3)CC1CC#N (centres undefined) + Cc1c(S(C)(=O)=O)c(-c2cc(F)cc(N3CCN(c4ccc(NS(=O)(=O)c5ccc(NC(CCN6CCC(C(=O)OCCCP(=O)(O)O)CC6)CSc6ccccc6)c(S(=O)(=O)C(F)(F)F)c5)cc4)CC3)c2)c(-c2ccc(Cl)cc2)n1C(C)C

>  <MEAS VALUE>
1.21

$$$$
>  <MOLECULE>
O=C(c1cc(Cc2n[nH]c(=O)c3ccccc23)ccc1F)N1CCN(C(=O)C2CC2)CC1 + Cc1c(S(C)(=O)=O)c(-c2cc(F)cc(N3CCN(c4ccc(NS(=O)(=O)c5ccc(NC(CCN6CCC(C(=O)OCCCP(=O)(O)O)CC6)CSc6ccccc6)c(S(=O)(=O)C(F)(F)F)c5)cc4)CC3)c2)c(-c2ccc(Cl)cc2)n1C(C)C

>  <MEAS VALUE>
38.1

$$$$
>  <MOLECULE>
C#Cc1c(F)ccc2cc(O)cc(-c3ncc4c(N5CC6CCC(C5)N6)nc(OCC56CCCN5CC(F)C6)nc4c3F)c12 (centres undefined) + Cc1c(S(C)(=O)=O)c(-c2cc(F)cc(N3CCN(c4ccc(NS(=O)(=O)c5ccc(NC(CCN6CCC(C(=O)OCCCP(=O)(O)O)CC6)CSc6ccccc6)c(S(=O)(=O)C(F)(F)F)c5)cc4)CC3)c2)c(-c2ccc(Cl)cc2)n1C(C)C

>  <MEAS VALUE>
77

$$$$

Would you kindly look at the next entry?
Item: C=CC(=O)N1CCN(c2nc(=O)n(-c3c(C)ccnc3C(C)C)c3nc(-c4c(O)cccc4F)c(F)cc23)C(C)C1 (centres undefined) + Cc1c(S(C)(=O)=O)c(-c2cc(F)cc(N3CCN(c4ccc(NS(=O)(=O)c5ccc(NC(CCN6CCC(C(=O)OCCCP(=O)(O)O)CC6)CSc6ccccc6)c(S(=O)(=O)C(F)(F)F)c5)cc4)CC3)c2)c(-c2ccc(Cl)cc2)n1C(C)C | viability, T/C: 95.1

###

Entries and their viability, T/C
Test system: NCI-H1876 complex spheroid growth, % test/control
Experiment: Anticancer human tumor NCI-H1876 cell line growth inhibition [Asc];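 further: compound exposure lasted 7 days starting three days after seeding; 100% = DMSO vehicle control wells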
Conditions: second compound 0.316 µM; first compound 1 µM; active compounds read low
Answer with a number only, understood to be in %.

Record excerpt, results attached:
>  <COMPOUND>
CCN1CCN(Cc2ccc(Nc3ncc(F)c(-c4cc(F)c5nc(C)n(C(C)C)c5c4)n3)nc2)CC1 + CNC(C)C(=O)NC1CN(S(=O)(=O)c2cccc(S(=O)(=O)N3CCC4CCC(C(=O)NC(c5ccccc5)c5ccccc5)N4C(=O)C(NC(=O)C(C)NC)C3)c2)CCC2CCC(C(=O)NC(c3ccccc3)c3ccccc3)N2C1=O

>  <viability, T/C, %>
140

$$$$
>  <COMPOUND>
O=C(c1ccc(F)c(F)c1Nc1ccc(I)cc1F)N1CC(O)([C@@H]2CCCCN2)C1 + Cc1c(S(C)(=O)=O)c(-c2cc(F)cc(N3CCN(c4ccc(NS(=O)(=O)c5ccc(NC(CCN6CCC(C(=O)OCCCP(=O)(O)O)CC6)CSc6ccccc6)c(S(=O)(=O)C(F)(F)F)c5)cc4)CC3)c2)c(-c2ccc(Cl)cc2)n1C(C)C

>  <viability, T/C, %>
78.4

$$$$
>  <COMPOUND>
C=C(F)C(=O)N1CCN(c2nc(OCC3CCCN3C)nc3c2CCN(c2cccc4cccc(Cl)c24)C3)CC1CC#N (stereo unspecified) + Cc1c(S(C)(=O)=O)c(-c2cc(F)cc(N3CCN(c4ccc(NS(=O)(=O)c5ccc(NC(CCN6CCC(C(=O)OCCCP(=O)(O)O)CC6)CSc6ccccc6)c(S(=O)(=O)C(F)(F)F)c5)cc4)CC3)c2)c(-c2ccc(Cl)cc2)n1C(C)C

>  <viability, T/C, %>
98.8

$$$$
>  <COMPOUND>
C=C(F)C(=O)N1CCN(c2nc(OCC3CCCN3C)nc3c2CCN(c2cccc4cccc(Cl)c24)C3)CC1CC#N (stereo unspecified) + CNC(C)C(=O)NC1CN(S(=O)(=O)c2cccc(S(=O)(=O)N3CCC4CCC(C(=O)NC(c5ccccc5)c5ccccc5)N4C(=O)C(NC(=O)C(C)NC)C3)c2)CCC2CCC(C(=O)NC(c3ccccc3)c3ccccc3)N2C1=O

>  <viability, T/C, %>
96.3

$$$$
>  <COMPOUND>
CCN1CCN(Cc2ccc(Nc3ncc(F)c(-c4cc(F)c5nc(C)n(C(C)C)c5c4)n3)nc2)CC1 + Cc1c(S(C)(=O)=O)c(-c2cc(F)cc(N3CCN(c4ccc(NS(=O)(=O)c5ccc(NC(CCN6CCC(C(=O)OCCCP(=O)(O)O)CC6)CSc6ccccc6)c(S(=O)(=O)C(F)(F)F)c5)cc4)CC3)c2)c(-c2ccc(Cl)cc2)n1C(C)C

>  <viability, T/C, %>
125

$$$$

Pending compound:
Reported viability, T/C for C=CC(=O)N1CCN(c2nc(=O)n(-c3c(C)ccnc3C(C)C)c3nc(-c4c(O)cccc4F)c(F)cc23)C(C)C1 (stereo unspecified) + Cc1c(S(C)(=O)=O)c(-c2cc(F)cc(N3CCN(c4ccc(NS(=O)(=O)c5ccc(NC(CCN6CCC(C(=O)OCCCP(=O)(O)O)CC6)CSc6ccccc6)c(S(=O)(=O)C(F)(F)F)c5)cc4)CC3)c2)c(-c2ccc(Cl)cc2)n1C(C)C was 103

###

Test system: NCI-H1876 complex spheroid growth, % test/control
Test: Anticancer human tumor NCI-H1876 cell line growth inhibition [Asc];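 further: compound exposure lasted 7 days starting three days after seeding; 100% = DMSO vehicle control wells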
Conditions: second compound 0.316 µM; first compound 1 µM; active compounds read low
# viability, T/C per entry
Report the figure in % without appending any unit label.

Please review the following examples before continuing.
>  <MOLECULE>
O=C(c1ccc(F)c(F)c1Nc1ccc(I)cc1F)N1CC(O)([C@@H]2CCCCN2)C1 + CNC(C)C(=O)NC1CN(S(=O)(=O)c2cccc(S(=O)(=O)N3CCC4CCC(C(=O)NC(c5ccccc5)c5ccccc5)N4C(=O)C(NC(=O)C(C)NC)C3)c2)CCC2CCC(C(=O)NC(c3ccccc3)c3ccccc3)N2C1=O

>  <viability, T/C / %>
72.3

$$$$
>  <MOLECULE>
O=C(c1cc(Cc2n[nH]c(=O)c3ccccc23)ccc1F)N1CCN(C(=O)C2CC2)CC1 + CNC(C)C(=O)NC1CN(S(=O)(=O)c2cccc(S(=O)(=O)N3CCC4CCC(C(=O)NC(c5ccccc5)c5ccccc5)N4C(=O)C(NC(=O)C(C)NC)C3)c2)CCC2CCC(C(=O)NC(c3ccccc3)c3ccccc3)N2C1=O

>  <viability, T/C / %>
111

$$$$

Moving on to the next molecule.
Notebook: C#Cc1c(F)ccc2cc(O)cc(-c3ncc4c(N5CC6CCC(C5)N6)nc(OCC56CCCN5CC(F)C6)nc4c3F)c12 (stereo not drawn) + Cc1c(S(C)(=O)=O)c(-c2cc(F)cc(N3CCN(c4ccc(NS(=O)(=O)c5ccc(NC(CCN6CCC(C(=O)OCCCP(=O)(O)O)CC6)CSc6ccccc6)c(S(=O)(=O)C(F)(F)F)c5)cc4)CC3)c2)c(-c2ccc(Cl)cc2)n1C(C)C , viability, T/C read as 90.7
